Tested on: NCI-H2009
EXPERIMENT NOTES: relative viability (nuclei count vs DMSO), 5 days (fraction); higher = more cells survive
SETTINGS: first compound 8 µM
Assignment: determine reported relative viability for the given molecules.
Answers are plain numbers.

Worked cases, relative viability given:
{"MOLECULE": "O=c1cc(-c2cccc3c2Sc2ccccc2S3)oc(N2CCOCC2)c1 + CC1(C)CCC(c2ccc(Cl)cc2)=C(CN2CCN(c3ccc(C(=O)NS(=O)(=O)c4ccc(N[C@H](CCN5CCOCC5)CSc5ccccc5)c(S(=O)(=O)C(F)(F)F)c4)cc3)CC2)C1 [Navitoclax] (partner 0.5 µM)", "TARGET": "NCI-H2009", "REPORTED": 1.11}
{"MOLECULE": "O=c1cc(-c2cccc3c2Sc2ccccc2S3)oc(N2CCOCC2)c1 + CS(=O)(=O)N1CCN(Cc2cc3nc(-c4cccc5[nH]ncc45)nc(N4CCOCC4)c3s2)CC1 [Pictilisib] (partner 1 µM)", "TARGET": "NCI-H2009", "REPORTED": 0.745}
{"MOLECULE": "O=c1cc(-c2cccc3c2Sc2ccccc2S3)oc(N2CCOCC2)c1 + N=C(N)NC(=N)NCCc1ccccc1 [Phenformin] (partner 250 µM)", "TARGET": "NCI-H2009", "REPORTED": 0.446}

Q: Look up relative viability for this molecule: O=c1cc(-c2cccc3c2Sc2ccccc2S3)oc(N2CCOCC2)c1 + CC(=O)Nc1cccc(-n2c(=O)n(C3CC3)c(=O)c3c(Nc4ccc(I)cc4F)n(C)c(=O)c(C)c32)c1 [Trametinib] (partner 0.02 µM)
Result: 0.208
